B1: LRRC45 (parent)
chain: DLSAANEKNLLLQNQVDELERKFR

Variants of: B1
Test: protein stability index of a GFP-peptide fusion (GPS, HEK-293T) (PSI 1-6); higher = more stable;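 note: lentivirally expressed fusions sorted by FACS into six bins by GFP to DsRed ratio, PSI derived from sequencing read proportions per bin multiplied by bin number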
Conditions: c terminus: a fixed tail appended
RECORDED METRIC: protein stability index

1. DLSAANEKNLLLQNQVDCLERKFR [E18C]    3.4
2. SLSAANEKNLLLQNQVDELERKFR [D1S]    4.25
3. DLSAANEKWLLLQNQVDELERKFR [N9W]    3.79
4. DLSAANEKNLLLQNQVDELESKFR [R21S]    4.23
5. DLSAANEKNLLVQNQVDELERKFR [L12V]    4.36
6. DLSAANEKCLLLQNQVDELERKFR [N9C]    4.23
7. DLSAANEKNLLLQNQVDELEMKFR [R21M]    3.97
8. DLSAANEKNLLLQNQVDELERKFM [R24M]    3.96
9. DLSAANEYNLLLQNQVDELERKFR [K8Y]    3.63
10. DLSAANEKYLLLQNQVDELERKFR [N9Y]    3.67
11. DQSAANEKNLLLQNQVDELERKFR [L2Q]    4.69
12. DLSARNEKNLLLQNQVDELERKFR [A5R]    3.67
13. DLSAANEKNLILQNQVDELERKFR [L11I]    4.46
14. DLSAANEKNLLLQNQVWELERKFR [D17W]    2.9
15. DLSAANEKNLLLTNQVDELERKFR [Q13T]    4.11
16. DLSMANEKNLLLQNQVDELERKFR [A4M]    3.49
17. DLSAANEKNLLLQNQVDELERKYR [F23Y]    3.85
18. DLSAANEKNLLLQHQVDELERKFR [N14H]    3.62
19. DLSAANEKNLLLQNQVDVLERKFR [E18V]    3.44
20. DLSAANEKNLLLQNQVDELERKFN [R24N]    4.47
21. DLSAANEKNLLLQNQKDELERKFR [V16K]    4.42
22. DLSAAREKNLLLQNQVDELERKFR [N6R]    4.61
23. DLSAANEKNILLQNQVDELERKFR [L10I]    3.58
24. DLSAANEKNLLLQNQVDELERKFT [R24T]    4.14
25. DLSAACEKNLLLQNQVDELERKFR [N6C]    4.59
26. DLKAANEKNLLLQNQVDELERKFR [S3K]    4.15
27. DLSAANEKNLLLQNQVDELERCFR [K22C]    3.47
28. DLSAANEKNLLLQNQIDELERKFR [V16I]    4
29. DLSAANEKNLLLYNQVDELERKFR [Q13Y]    3.42
30. DLSAANEKNLLLQNQVDELIRKFR [E20I]    3.47
31. DLSAANEKNLLLQNQVDELERKFV [R24V]    3.71
32. DLSWANEKNLLLQNQVDELERKFR [A4W]    3.78
33. DLSAANEKNLLLHNQVDELERKFR [Q13H]    3.66
34. DLSAANEKNLVLQNQVDELERKFR [L11V]    3.96
35. DLSAANEKNLLLQNQVYELERKFR [D17Y]    3.23
36. DLSAANEKNLLLQNMVDELERKFR [Q15M]    3.77
37. DLSAANEKNLLEQNQVDELERKFR [L12E]    4.61
38. DLSAKNEKNLLLQNQVDELERKFR [A5K]    4.33
39. DLSAANEKNLLLQKQVDELERKFR [N14K]    3.69
40. DLSAANEKNLLLQNQVDELERKTR [F23T]    4.39
41. DLSAANEKNLLLQEQVDELERKFR [N14E]    4.19
42. DLSAANEKNLLLQNRVDELERKFR [Q15R]    3.5
43. DLSAANEKVLLLQNQVDELERKFR [N9V]    4.12
44. DLSAANEKNLLLQNQVDEIERKFR [L19I]    4.24
45. DLSHANEKNLLLQNQVDELERKFR [A4H]    4.01
46. DLSAANEKNLLQQNQVDELERKFR [L12Q]    4.19
